// provenance: patent US8173635B2

tested on: PKC alpha kinase (Homo sapiens, UniProt P17252)
experiment description: PKC alpha kinase inhibition, coupled-enzyme NADH absorbance assay (Ki)
Format: biochemical
stated conditions: 130 μM ATP, 4.5 nM PKC alpha, 30° C.; read-out: Ki PKC alpha
Protocol: An assay buffer solution was prepared which consisted of 100 mM HEPES (pH 7.5), 10 mM MgCl2, 25 mM NaCl, 0.1 mM EDTA, 100 μM CaCl2 and 0.01% Brij. […] To 16 μL of this enzyme buffer, in a 384 well plate, was added 1 μL of VRT stock solution in DMSO. […] Initial rate data was determined from the rate of change of absorbance at 340 nm (corresponding to stoichiometric consumption of NADH) using a Molecular Devices Spectramax plate reader (Sunnyvale, Calif.) over 15 mins at 30° C. […]
pKi: −log10 of the molar value.
Field: pKi. Provide a value for each of the compounds that follow.

Request: Which pKi value is on record for CCC(C)(C#N)c1cc(CCCOC)cc(-c2ccnc3[nH]ncc23)c1 (stereo not drawn) ?
Response: > 5.55

Request: Which pKi value is on record for CCC(C)(CN)c1cccc(-c2ccnc3[nH]nc(C)c23)c1 (stereo not drawn) ?
Response: > 7.30

Request: Which pKi value is on record for CC(CN)(CC1CCOCC1)c1cccc(-c2ccnc3[nH]ncc23)c1 (stereo not drawn) ?
Response: > 6.30

Request: Which pKi value is on record for OCC1(c2cccc(-c3ccnc4[nH]nc(C(F)(F)F)c34)c2)CCC1 ?
Response: < 5.92

Request: Which pKi value is on record for N#CC(c1cccc(-c2ccnc3[nH]ncc23)c1)N1CCOCC1 (stereo not drawn) ?
Response: < 5.92

Request: Which pKi value is on record for CCC(C)(CN)c1cc(CC(C)C)cc(-c2ccnc3[nH]ncc23)c1 (stereo not drawn) ?
Response: < 5.55

Request: Which pKi value is on record for CCCc1cc(-c2ccnc3[nH]ncc23)cc(C2(C#N)CCCC2)c1 ?
Response: < 5.55

Request: Which pKi value is on record for CC#CC1(c2cc(C)cc(-c3ccnc4[nH]nc(C(F)(F)F)c34)c2)CNC(=O)O1 (stereo not drawn) ?
Response: < 5.92

Request: Which pKi value is on record for CCC(C#N)(CC)c1cccc(-c2ccnc3[nH]ncc23)c1 ?
Response: > 5.55

###

Field: pKi. Provide a value for each of the molecules that follow.
tested on: PKC theta kinase (Homo sapiens, UniProt Q04759)
Sequence (Q04759 whole entry): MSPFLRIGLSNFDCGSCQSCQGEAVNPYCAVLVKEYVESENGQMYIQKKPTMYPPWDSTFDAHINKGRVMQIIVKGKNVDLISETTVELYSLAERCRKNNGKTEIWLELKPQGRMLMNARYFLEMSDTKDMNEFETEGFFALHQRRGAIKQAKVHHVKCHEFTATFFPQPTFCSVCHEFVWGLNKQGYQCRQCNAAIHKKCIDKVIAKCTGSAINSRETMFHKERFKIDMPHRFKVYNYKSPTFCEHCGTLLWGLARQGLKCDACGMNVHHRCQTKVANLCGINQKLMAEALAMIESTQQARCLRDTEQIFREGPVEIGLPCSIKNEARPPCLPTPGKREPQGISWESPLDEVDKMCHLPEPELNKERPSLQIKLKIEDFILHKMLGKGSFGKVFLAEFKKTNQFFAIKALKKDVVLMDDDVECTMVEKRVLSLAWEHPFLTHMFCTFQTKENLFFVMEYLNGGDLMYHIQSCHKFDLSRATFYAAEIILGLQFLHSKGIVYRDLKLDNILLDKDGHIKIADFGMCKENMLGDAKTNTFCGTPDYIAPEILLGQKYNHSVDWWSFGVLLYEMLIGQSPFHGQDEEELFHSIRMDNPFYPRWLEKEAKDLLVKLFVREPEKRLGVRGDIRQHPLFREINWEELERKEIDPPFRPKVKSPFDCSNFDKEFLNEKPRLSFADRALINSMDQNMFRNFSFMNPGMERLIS
experiment description: PKC theta kinase inhibition, coupled-enzyme NADH absorbance assay (Ki)
Format: biochemical
stated conditions: 240 μM ATP, 18 nM PKC theta, 30° C.; read-out: Ki PKC theta
pKi: −log10 of the molar value.

Request: Which pKi value is on record for CCC(C#N)c1cc(C)cc(-c2ccnc3[nH]ncc23)c1 (stereo not drawn) [Compound 86] ?
Response: > 6.30

Request: Which pKi value is on record for CC(C)(C#N)c1cc(NC2CNC2)cc(-c2ccnc3[nH]ncc23)c1 [Compound 14] ?
Response: > 6.30

Request: Which pKi value is on record for N#CCc1cccc(-c2ccnc3[nH]ncc23)c1 [Compound 23] ?
Response: > 6.30

Request: Which pKi value is on record for CCCc1cc(-c2ccnc3[nH]ncc23)cc(C(C)(CC)CN)c1 (stereo not drawn) [Compound 130] ?
Response: > 7.30

Request: Which pKi value is on record for CC#CC1(c2cc(C)cc(-c3ccnc4[nH]nc(C(F)(F)F)c34)c2)CNC(=O)O1 (stereo not drawn) [Compound 295] ?
Response: < 6.15

Request: Which pKi value is on record for CC(C)(O)CCc1cc(-c2ccnc3[nH]nc(C(F)(F)F)c23)cc(C2(C#N)CC2)c1 [Compound 316] ?
Response: > 7.30

Request: Which pKi value is on record for Cc1cc(-c2ccnc3[nH]nc(C(F)(F)F)c23)cc(C2(CN)CCOCC2)c1 [Compound 275] ?
Response: > 7.30

Request: Which pKi value is on record for CCC(C)(C#N)c1cc(CCCOC)cc(-c2ccnc3[nH]ncc23)c1 (stereo not drawn) [Compound 109] ?
Response: > 6.30

Request: Which pKi value is on record for N#CC1(c2cc(CCO)cc(-c3ccnc4[nH]ncc34)c2)CC1 [Compound 114] ?
Response: > 7.30

###

tested on: UniProt:Q04759
experiment description: PKC theta kinase inhibition, coupled-enzyme NADH absorbance assay (Ki)
Assay type: biochemical
stated conditions: 240 μM ATP, 18 nM PKC theta, 30° C.; read-out: Ki PKC theta
Procedure: An assay buffer solution was prepared which consisted of 100 mM HEPES (pH 7.5), 10 mM MgCl2, 25 mM NaCl, 0.1 mM EDTA and 0.01% Brij. […] To 60 μL of this enzyme buffer, in a 384 well plate, was added 2 μL of VRT stock solution in DMSO. The mixture was allowed to equilibrate for 10 mins at 30° C. […] Ki values were calculated from initial rate data by non-linear regression using the Prism software package (Prism 4.0a, Graphpad Software, San Diego, Calif.).
pKi: −log10 of the molar value.
observed property: pKi

Request: pKi, test system UniProt:Q04759, entry CCCc1cc(-c2ccnc3[nH]ncc23)cc(C2(CN)CCCC2)c1 [Compound 147]
Response: > 6.30

Request: pKi, test system UniProt:Q04759, entry N#CC1(c2cc(CCN)cc(-c3ccnc4[nH]ncc34)c2)CC1 [Compound 128]
Response: > 6.30

Request: pKi, test system UniProt:Q04759, entry CCC(C)(CN)c1cc(Br)cc(-c2ccnc3[nH]ncc23)c1 (stereo not drawn) [Compound 167]
Response: > 7.30

Request: pKi, test system UniProt:Q04759, entry CCC(C)(C#N)c1cc(CC#N)cc(-c2ccnc3[nH]ncc23)c1 (stereo not drawn) [Compound 126]
Response: > 6.30

Request: pKi, test system UniProt:Q04759, entry CCc1n[nH]c2nccc(-c3cccc(CN)c3)c12 [Compound 270]
Response: < 6.15

Request: pKi, test system UniProt:Q04759, entry NCc1cccc(-c2ccnc3[nH]nc(C4CC4)c23)c1 [Compound 269]
Response: < 6.15

Request: pKi, test system UniProt:Q04759, entry CC(CN)(c1cccc(-c2ccnc3[nH]ncc23)c1)C1CCCC1 (stereo not drawn) [Compound 46]
Response: > 7.30

Request: pKi, test system UniProt:Q04759, entry CCC(C)(CN)c1cc(Cl)cc(-c2ccnc3[nH]ncc23)c1 (stereo not drawn) [Compound 133]
Response: > 7.30

Request: pKi, test system UniProt:Q04759, entry CCc1n[nH]c2nccc(-c3cc(CCCN)cc(C4(C#N)CC4)c3)c12 [Compound 302]
Response: > 7.30

###

tested on: PKC alpha kinase (Homo sapiens, UniProt P17252)
experiment description: PKC alpha kinase inhibition, coupled-enzyme NADH absorbance assay (Ki)
Type: biochemical
observed property: Ki

Request: Which Ki value is on record for NCCc1cc(Br)cc(-c2ccnc3[nH]ncc23)c1 ?
Response: > 1.2 µM

###

Field: pKi. Provide a value for each of the molecules that follow.
tested on: PKC delta kinase (Homo sapiens, UniProt Q05655)
Sequence (Q05655 whole entry): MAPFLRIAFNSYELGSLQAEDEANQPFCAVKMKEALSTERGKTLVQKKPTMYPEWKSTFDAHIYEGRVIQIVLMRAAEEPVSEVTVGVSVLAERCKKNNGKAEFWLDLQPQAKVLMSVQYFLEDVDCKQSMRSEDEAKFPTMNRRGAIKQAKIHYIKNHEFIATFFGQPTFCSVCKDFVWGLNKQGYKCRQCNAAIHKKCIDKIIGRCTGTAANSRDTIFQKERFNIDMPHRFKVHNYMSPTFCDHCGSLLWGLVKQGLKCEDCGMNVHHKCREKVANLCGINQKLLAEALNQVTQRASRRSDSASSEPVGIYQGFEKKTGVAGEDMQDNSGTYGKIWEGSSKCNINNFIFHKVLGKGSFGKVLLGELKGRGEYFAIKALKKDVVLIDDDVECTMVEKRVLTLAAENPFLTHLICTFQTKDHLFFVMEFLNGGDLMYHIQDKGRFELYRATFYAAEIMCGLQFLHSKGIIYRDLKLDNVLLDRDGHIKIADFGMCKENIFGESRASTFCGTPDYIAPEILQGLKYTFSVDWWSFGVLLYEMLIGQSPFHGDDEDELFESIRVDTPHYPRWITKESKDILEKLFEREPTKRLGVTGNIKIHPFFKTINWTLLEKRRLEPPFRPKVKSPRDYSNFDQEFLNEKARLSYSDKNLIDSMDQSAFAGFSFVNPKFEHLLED
experiment description: PKC delta kinase inhibition, coupled-enzyme NADH absorbance assay (Ki)
Format: biochemical
stated conditions: 150 μM ATP, 46 nM PKC delta, 30° C.; read-out: Ki PKC delta
Method: An assay buffer solution was prepared which consisted of 100 mM HEPES (pH 7.5), 10 mM MgCl2, 25 mM NaCl, 0.1 mM EDTA and 0.01% Brij. […] To 16 μL of this enzyme buffer, in a 384 well plate, was added 1 μL of VRT stock solution in DMSO. The mixture was allowed to equilibrate for 10 mins at 30° C. […] Ki values were calculated from initial rate data by non-linear regression using the Prism software package (Prism 4.0a, Graphpad Software, San Diego, Calif.).
pKi: −log10 of the molar value.

Request: Which pKi value is on record for CC(C)(C#N)c1cc(Nc2ccccc2)cc(-c2ccnc3[nH]ncc23)c1 ?
Response: < 5.55

Request: Which pKi value is on record for C=Cc1cc(-c2ccnc3[nH]ncc23)cc(C(C)(C)C#N)c1 ?
Response: > 5.55

Request: Which pKi value is on record for CC(C)(C#N)c1cc(NCCN)cc(-c2ccnc3[nH]ncc23)c1 ?
Response: < 5.55

Request: Which pKi value is on record for CCC(C)(CO)c1cc(C)cc(-c2ccnc3[nH]ncc23)c1 (stereo not shown) ?
Response: > 5.55

Request: Which pKi value is on record for CCCc1cc(-c2ccnc3[nH]ncc23)cc(C(C)(CC)CN)c1 (stereo not shown) ?
Response: > 5.55

Request: Which pKi value is on record for NC(CCC1CCCCC1)c1cccc(-c2ccnc3[nH]ncc23)c1 (stereo not shown) ?
Response: < 5.92

Request: Which pKi value is on record for CCc1cc(-c2ccnc3[nH]ncc23)cc(C(C)(CC)CN)c1 (stereo not shown) ?
Response: > 5.55

Request: Which pKi value is on record for CCCc1cc(-c2ccnc3[nH]nc(Cl)c23)cc(C(C)(CC)CN)c1 (stereo not shown) ?
Response: > 5.55

Request: Which pKi value is on record for CNCc1cc(-c2ccnc3[nH]ncc23)cc(C(C)(C)C#N)c1 ?
Response: < 5.55

Request: Which pKi value is on record for CCC(C)(CN)c1cc(CC(F)(F)F)cc(-c2ccnc3[nH]ncc23)c1 (stereo not shown) ?
Response: < 5.70

Request: Which pKi value is on record for CCC(C)(CN)c1cc(CC(C)C)cc(-c2ccnc3[nH]ncc23)c1 (stereo not shown) ?
Response: < 5.55

Request: Which pKi value is on record for COc1cccc(CC(C)(CN)c2cccc(-c3ccnc4[nH]ncc34)c2)c1 (stereo not shown) ?
Response: > 6.30

Request: Which pKi value is on record for N#CC1(c2cccc(-c3ccnc4[nH]ncc34)c2)CCCC1 ?
Response: > 5.55

Request: Which pKi value is on record for CC[C@@](C)(CN)c1cccc(-c2ccnc3[nH]ncc23)c1 ?
Response: > 6.30

Request: Which pKi value is on record for NCC1(c2cccc(-c3ccnc4[nH]ncc34)c2)COC1 ?
Response: > 5.55

Request: Which pKi value is on record for C/C=C/c1cc(-c2ccnc3[nH]ncc23)cc(C(C)(C)C#N)c1 ?
Response: < 5.55

Request: Which pKi value is on record for CC(CN)(Cc1cscn1)c1cccc(-c2ccnc3[nH]ncc23)c1 (stereo not shown) ?
Response: > 5.55

Request: Which pKi value is on record for CCC(F)c1cc(-c2ccnc3[nH]ncc23)cc(C(C)(C#N)CC)c1 (stereo not shown) ?
Response: < 5.70

Request: Which pKi value is on record for CC(CN)(Cc1ccccc1)c1cccc(-c2ccnc3[nH]ncc23)c1 (stereo not shown) ?
Response: > 6.30

Request: Which pKi value is on record for CC(C#N)(CC1CC1)c1cccc(-c2ccnc3[nH]ncc23)c1 (stereo not shown) ?
Response: < 5.55

Request: Which pKi value is on record for C/C=C\c1cc(-c2ccnc3[nH]ncc23)cc(C(C)(C#N)CC)c1 (stereo not shown) ?
Response: < 5.55

Request: Which pKi value is on record for CCc1n[nH]c2nccc(-c3cccc(CN)c3)c12 ?
Response: < 5.92

Request: Which pKi value is on record for CCC(C)(CN)c1cc(F)cc(-c2ccnc3[nH]nc(C(F)(F)F)c23)c1 (stereo not shown) ?
Response: > 7.30

Request: Which pKi value is on record for CC(C)CC(C)(CN)c1cccc(-c2ccnc3[nH]ncc23)c1 (stereo not shown) ?
Response: > 6.30

Request: Which pKi value is on record for CCC(C)(C#N)c1cc(CCN)cc(-c2ccnc3[nH]ncc23)c1 (stereo not shown) ?
Response: < 5.70

Request: Which pKi value is on record for CC(CN)(Cc1ccccn1)c1cccc(-c2ccnc3[nH]ncc23)c1 (stereo not shown) ?
Response: < 5.70

Request: Which pKi value is on record for N#CC1(c2cccc(-c3ccnc4[nH]ncc34)n2)CCNCC1 ?
Response: > 6.30

Request: Which pKi value is on record for c1cc(-c2ccnc3[nH]ncc23)cc(C2CCNCC2)c1 ?
Response: > 5.55

Request: Which pKi value is on record for NC(CC1CCCCC1)c1cccc(-c2ccnc3[nH]nc(C(F)(F)F)c23)c1 (stereo not shown) ?
Response: < 5.92

Request: Which pKi value is on record for NCC1(c2cc(F)cc(-c3ccnc4[nH]nc(Cl)c34)c2)CCOCC1 ?
Response: > 6.30

Request: Which pKi value is on record for N#CCC1(c2cccc(-c3ccnc4[nH]ncc34)c2)CCNC1 (stereo not shown) ?
Response: > 6.30

Request: Which pKi value is on record for CC(C)(C#N)c1cc(NCCCN)cc(-c2ccnc3[nH]ncc23)c1 ?
Response: < 5.55

Request: Which pKi value is on record for CC(C)(C#N)c1cc(CCCO)cc(-c2ccnc3[nH]ncc23)c1 ?
Response: > 5.55

Request: Which pKi value is on record for CCC(C)(CN)c1cc(-c2ccnc3[nH]ncc23)cc(C(F)F)c1 (stereo not shown) ?
Response: > 6.30

Request: Which pKi value is on record for N#CCCc1cc(-c2ccnc3[nH]ncc23)cc(C2(C#N)CC2)c1 ?
Response: < 5.70

Request: Which pKi value is on record for CCc1cc(-c2ccnc3[nH]nc(C(F)(F)F)c23)cc(C(C)(CC)CN)c1 (stereo not shown) ?
Response: > 6.30

Request: Which pKi value is on record for CC(CN)(c1cccc(-c2ccnc3[nH]ncc23)c1)C1CCCC1 (stereo not shown) ?
Response: > 6.30
